# System: ABCG2 (BCRP)
# Procedure text: Therapeutic index, ratio of GI50 for MDCK2 cells co-expressing BCRP (unknown origin) to IC50 for ABCG2 (unknown origin) expressed in MDCK2 cells co-expressing BCRP (unknown origin)
# Assay type: toxicity, cell-based
# Assay context: dog, read-out: TI
Readout kind: selectivity ratio
Could you respond with only the numeric value?

Summary for this compound, CC1CCc2c(sc3nc(-c4cccnc4)nc(N4CCN(C(C(N)=O)c5ccccc5)CC4)c23)C1 (stereo unspecified) : selectivity ratio is 6.9

* * *

# Procedure text: Growth inhibition of human MCF7/MX cells incubated for 72 hrs by MTT assay
Readout kind: GI50 at 72 h (µM)
Give a bare numeral; the unit µM is implied.

Summary for this molecule, CC1CCc2c(sc3nc(-c4cccnc4)nc(N4CCN(C(C(N)=O)c5ccccc5)CC4)c23)C1 (stereo unspecified) : GI50 at 72 h is 47

* * *

# Procedure text: Growth inhibition of human H69AR cells incubated for 72 hrs by MTT assay
Readout kind: GI50 at 72 h (µM)
Give a bare numeral; the unit µM is implied.

Summary for this molecule, CC1CCc2c(sc3nc(-c4cccnc4)nc(N4CCN(C(C(N)=O)c5ccccc5)CC4)c23)C1 (stereo unspecified) : GI50 at 72 h is 56.9

* * *

# Procedure text: Growth inhibition of MDCK2 cells incubated for 72 hrs by MTT assay
# Format: cell-based, Canis lupus familiaris, MDCK-II
# Assay context: dog
Readout kind: GI50 at 72 h
Param answer (str): number followed by unit.

Summary for this compound, CC1CCc2c(sc3nc(-c4cccnc4)nc(N4CCN(C(C(N)=O)c5ccccc5)CC4)c23)C1 (stereo unspecified) : GI50 at 72 h is 27 µM

* * *

Recorded inhibition at 2 h, 10 µM, one value per entry.
# System under test: ABCG2 (BCRP) (Homo sapiens, UniProt Q9UNQ0)
# Sequence (Q9UNQ0 whole entry): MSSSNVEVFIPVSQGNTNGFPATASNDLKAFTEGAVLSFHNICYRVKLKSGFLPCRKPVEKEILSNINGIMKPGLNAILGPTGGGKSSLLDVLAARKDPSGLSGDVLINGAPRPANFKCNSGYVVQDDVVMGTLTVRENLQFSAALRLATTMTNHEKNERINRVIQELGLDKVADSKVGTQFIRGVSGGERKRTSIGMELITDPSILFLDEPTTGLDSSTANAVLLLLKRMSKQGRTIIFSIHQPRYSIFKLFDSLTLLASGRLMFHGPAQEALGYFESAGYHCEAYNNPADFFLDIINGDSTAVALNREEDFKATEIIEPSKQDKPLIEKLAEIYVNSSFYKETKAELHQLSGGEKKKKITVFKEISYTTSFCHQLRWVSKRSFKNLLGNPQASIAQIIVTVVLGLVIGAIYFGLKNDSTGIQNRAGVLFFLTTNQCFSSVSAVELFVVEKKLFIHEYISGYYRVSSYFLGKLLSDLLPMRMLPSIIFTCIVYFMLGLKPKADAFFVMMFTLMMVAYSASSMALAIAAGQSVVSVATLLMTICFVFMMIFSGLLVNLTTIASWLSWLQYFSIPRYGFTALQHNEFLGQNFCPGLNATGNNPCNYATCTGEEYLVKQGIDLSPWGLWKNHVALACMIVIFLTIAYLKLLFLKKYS
# Procedure text: Inhibition of ABCG2 (unknown origin) expressed in MDCK2 cells co-expressing BCRP (unknown origin) assessed as effect on pheophorbide A accumulation at 10 uM pre-incubated for 20 mins followed by pheophorbide A addition and measured after 120 mins by flow cytometric analysis relative to Ko143
# Format: cell-based
# Assay context: probe pheophorbide A

Molecule: C[C@@]1(C(=O)Nc2ccc(F)nc2)CCCN1c1nc(Nc2cc(C3CC3)n[nH]2)c2cccn2n1
System under test: ABCG2 (BCRP) (Homo sapiens, UniProt Q9UNQ0)
inhibition at 2 h, 10 µM: ≥ 20%
--
Molecule: Fc1ccccc1N1CCN(Cc2csc(-c3ccc4c(c3)OCO4)n2)CC1
System under test: ABCG2 (BCRP) (Homo sapiens, UniProt Q9UNQ0)
inhibition at 2 h, 10 µM: ≥ 20%
--
Molecule: Cc1nc2cc(NC(=O)C3CCCN(c4cc(-n5cccn5)ncn4)C3)ccc2s1 (stereo not given)
System under test: ABCG2 (BCRP) (Homo sapiens, UniProt Q9UNQ0)
inhibition at 2 h, 10 µM: ≥ 20%
--
Molecule: O=C(CSc1nnc(-c2ccc(F)cc2)o1)N1CCN(Cc2ccc3c(c2)CCO3)CC1
System under test: ABCG2 (BCRP) (Homo sapiens, UniProt Q9UNQ0)
inhibition at 2 h, 10 µM: ≥ 20%
--
Molecule: O=C(c1ccc2c(c1)OCCO2)C1CCN(C(=O)c2ccc(-n3cccn3)cc2)CC1
System under test: ABCG2 (BCRP) (Homo sapiens, UniProt Q9UNQ0)
inhibition at 2 h, 10 µM: ≥ 20%
--
Molecule: CC1CCc2c(sc3nc(-c4cccnc4)nc(N4CCN(C(C(N)=O)c5ccccc5)CC4)c23)C1 (stereo not given)
System under test: ABCG2 (BCRP) (Homo sapiens, UniProt Q9UNQ0)
inhibition at 2 h, 10 µM: ≥ 20%
--
Molecule: CCCc1cc(N2CCN(CCOc3cccc4ccccc34)CC2)n2nc3nc(C)cc(C)c3c2n1
System under test: ABCG2 (BCRP) (Homo sapiens, UniProt Q9UNQ0)
inhibition at 2 h, 10 µM: ≥ 20%
--
Molecule: O=C(c1cc(-c2cccnc2)nc2ccccc12)N1CCN(Cc2cccs2)CC1
System under test: ABCG2 (BCRP) (Homo sapiens, UniProt Q9UNQ0)
inhibition at 2 h, 10 µM: ≥ 20%
--
Molecule: N#Cc1ccc(CN2CCN(C(=O)c3cn(Cc4ccccc4)nc3-c3cccnc3)CC2)cc1
System under test: ABCG2 (BCRP) (Homo sapiens, UniProt Q9UNQ0)
inhibition at 2 h, 10 µM: ≥ 20%

Summary for this molecule, `Cc1cc(C)c2c(n1)sc1c(N3CCN(Cc4ccccc4Cl)CC3)ncnc12` : inhibition at 2 h, 10 µM is ≥ 20%
